test.target: T1, glycoprotein of rabies virus strain CVS-11 (rabies virus strain CVS-11, UniProt O92284 20-524)
T1 sequence: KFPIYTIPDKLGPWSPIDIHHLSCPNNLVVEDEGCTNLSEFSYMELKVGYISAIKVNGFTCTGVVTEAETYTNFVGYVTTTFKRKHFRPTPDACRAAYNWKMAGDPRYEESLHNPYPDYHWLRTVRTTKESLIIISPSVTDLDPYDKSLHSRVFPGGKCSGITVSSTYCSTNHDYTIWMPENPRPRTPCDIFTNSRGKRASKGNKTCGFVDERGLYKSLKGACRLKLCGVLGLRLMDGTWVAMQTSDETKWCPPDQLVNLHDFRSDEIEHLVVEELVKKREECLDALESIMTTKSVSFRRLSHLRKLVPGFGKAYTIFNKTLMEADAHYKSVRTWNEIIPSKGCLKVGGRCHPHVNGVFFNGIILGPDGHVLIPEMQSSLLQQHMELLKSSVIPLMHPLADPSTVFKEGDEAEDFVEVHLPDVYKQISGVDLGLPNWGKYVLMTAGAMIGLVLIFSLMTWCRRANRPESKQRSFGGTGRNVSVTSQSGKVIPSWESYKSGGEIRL
protocol.description: cell-based or functional assay
value.kind: Potency (IU/ml)
State the answer as a number, implicitly in IU/ml.

Entry under review: SC04-146 (scFv) scFv: AMAEVQLVQSGGGVVQPGRSLRLSCAASGFTFSSYGMHWVRQAPGKGLEWVATISYDGSIKDYADSEEGRFTISRDNSKNTLYLQMNSLRAEDTAVYYCAKGGKTGEFDYWGQGTLVTVSSGTGGSGGTGSGTGGSTDVVMTQSPATLSVSPGESATLFCRASESVYSNLAWYQHKPGRAPRLLIYGASTRATGIPARFDGTGSGTDFTLTISSLQSEDFAVYYCQQYNDWPITFGQGTRLEIKRAAA . Reported Potency (IU/ml)?
3

Now consider SC04-010 (scFv) scFv: AMAQVQLVQSGGDLVQPGRSLRLSCAASGFTFSSYGMHWVRQAPGKGLEWVADISYDGSNKYYADSVKGRFTISRDNSKNTLYLQMNSLRAEDTAVYYCAKDGLDLTGTIQPFGYWGQGTLVTVSSGTGGSGGTGSGTGGSTDIQMTQSPSSLSASVGDRVTITCRASQGIRNDLGWYQQKPGKAPKLLIYAASSLQSGVPSRFSGSGSGTDFTLTISSLQPEDFATYYCLQDYNYPRTFGQGTKVEIKRAAA and answer again.
4

Now consider SC04-040 (scFv) scFv: AMAQVQLVQSGGGVVQPGRSLRLSCAASGFTFGSYGMHWVRQAPGKGLEWVATIFYDGSYKDYADSVKGRFTISRDNSKNTLYLQMNSLRAEDTAVYYCAKGSKVGDFDYWGQGTLVTVSSGTGGSGGTGSGTGGSTQPVLTQPPSVSVAPGQTARISCGGDNIGTNTVQWYQQKPGQAPVLVVYDDSDRPSGIPERFSGSNSGDTATLTISRVEAGDEADYYCQVWDDSSDLVVFGGGTKVTVLGAAA and answer again.
0.3

Now consider SC04-108 (scFv) scFv: AMAEVQLVQSGGGLVQPGGSLRLSCAASGFTFSSYGMHWVRQAPGKGLEWVAVILYDGSDKFYADSVKGRFTISRDNSKDTLYLQMNSLRAEDTAVYYCAKFMIVADDAFDIWGQGTMVTVSSGTGGSGGTGSGTGGSTDIQLTQSPSSLSASVGDRVTITCRASQGISSHLVWYQQKPGKAPKSLIYAASSLQSGVPSRFSGSESATDFTLTISSLQPEDFATYYCQQYYSYPITFGQGTRLEIKRAAA and answer again.
1

Now consider SC04-026 (scFv) scFv: AMAEVQLVESGAEVKKPGESLKISCKGSGYNFPYSWIAWVRQMPGKGLEWMGIIFPGDSDTRYSPPFQGQVTISADNSKSTAYLQWSSLKASDTAMYYCARTSNWNYLDRFDPWGQGTLVTVSSGTGGSGGTGSGTGGSTDVVMTQSPLSLPVTPGEPASISCRSSQSLLHSNGHDYLDWYVQKPGQSPQPLIYLGSDRASGVPDRFSGSGSGTHFTLNISRVEAEDVGVYYCMQSLQTPWTFGQGTKLEIKRAAA and answer again.
0.3
